Data origin: PubChem BioAssay (Tox21)

assay: A CellTox Green Cytotoxicity Assay to monitor cytotoxicity in HepG2 cells - 32 hour (AID 1224883); conditions: CellTox Green fluorescence; series mostly up to 76.8 µM; further: nearly all actives have a fitted effect of over 50% in size
Records with an inconclusive call do not appear. The source made the active and inactive calls. The call rests on the fitted dose curve; in most records, active means well fitted activation curve with a large enough effect in the repeat runs; inconclusive means weak or mixed curves; inactive means flat fitted curve, though single readings scatter.
Hi there, use one of these labels in your reply, thanks! True for active, False for inactive

compound=O=C(Cl)c1ccc(Cl)cc1 label=False

Problem: Call for entry NC(=O)CCl :
Solution: False

Problem: Could you check what this test reported for FC(F)(F)c1cccc(C2=CCN(CCc3ccc4ccccc4c3)CC2)c1 ?
Solution: False

###

assay: qHTS assay to identify small molecule antagonists of the retinoid acid receptor (RAR) signaling pathway - cell viability counter screen (AID 1159551); settings: C3RL4 cells viability, ATP luminescence (CellTiter-Glo), 6 h; series mostly up to 92.4 µM; further: nearly all actives have a fitted effect of over 35% in size
Records with an inconclusive call do not appear. Active and inactive are the calls of the source. The call rests on the fitted dose curve; in most records, active means well fitted cell-killing curve with a large enough effect in the repeat runs; inconclusive means weak or mixed curves, or effect the other way; inactive means flat fitted curve, though single readings scatter.
Lab note: assign the record to one of 1 for active, 0 for inactive

Problem: Per the assay record, what outcome was assigned to COP(=O)(CCC(=O)NCO)OC ?
Solution: 0

Problem: Hey, what did the test say about ClCc1ccccc1CCl ?
Solution: 0

Problem: Just curious, what result did NC(=O)CCl get here?
Solution: 0

Problem: Could you check what this test reported for CC(C)(C)c1ccc(CSc2cnn(C(C)(C)C)c(=O)c2Cl)cc1 ?
Solution: 0
